Ref: patent US5229131A

# assayText: in vivo
# testContext: dog, iv, half-life
measureName: half-life (h)
Number in h, nothing else.

# input Which half-life value is on record for CC(C)NCC(O)COc1cccc2ccccc12 (stereo not shown) ?
# output 1.97

* * *

# assayText: in vivo
# testContext: dog, iv, terminal phase half-life
measureName: half-life

# input Which half-life value is on record for CC(C)NCC(O)COc1cccc2ccccc12 (stereo not shown) ?
# output ~2 h
